The reported numbers originate from paper PMC8298264.

Tested on: human HL60 cells
Experimental Protocol: SWATH-MS proteomics, differential protein representation, akirin2 KO vs WT HL60 cells
Type: cell-based
Protocol Conditions: KO vs WT HL60 cells; sheet "Under-represented in KO"
Metric: Fold Change
Returns: the value as a bare number; no unit string appended.

The cases that follow already have their Fold Change on record.
sp¦Q9NVJ2¦ARL8B_HUMAN (protein, UniProt Q9NVJ2 1-186, looked up) ADP-ribosylation factor-like …: MLALISRLLDWFRSLFWKEEMELTLVGLQYSGKTTFVNVIASGQFSEDMIPTVGFNMRKVTKGNVTIKIWDIGGQPRFRSMWERYCRGVNAIVYMIDAADREKIEASRNELHNLLDKPQLQGIPVLVLGNKRDLPNALDEKQLIEKMNLSAIQDREICCYSISCKEKDNIDITLQWLIQHSKSRRS
0.5417
sp¦P20340¦RAB6A_HUMAN (protein, UniProt P20340 2-208, looked up) Ras-related protein Rab-6A: STGGDFGNPLRKFKLVFLGEQSVGKTSLITRFMYDSFDNTYQATIGIDFLSKTMYLEDRTVRLQLWDTAGQERFRSLIPSYIRDSTVAVVVYDITNVNSFQQTTKWIDDVRTERGSDVIIMLVGNKTDLADKRQVSIEEGERKAKELNVMFIETSAKAGYNVKQLFRRVAAALPGMESTQDRSREDMIDIKLEKPQEQPVSEGGCSC
0.5176
sp¦O75915¦PRAF3_HUMAN (protein, UniProt O75915 1-188, looked up) PRA1 family protein 3: MDVNIAPLRAWDDFFPGSDRFARPDFRDISKWNNRVVSNLLYYQTNYLVVAAMMISIVGFLSPFNMILGGIVVVLVFTGFVWAAHNKDVLRRMKKRYPTTFVMVVMLASYFLISMFGGVMVFVFGITFPLLLMFIHASLRLRNLKNKLENKMEGIGLKRTPMGIVLDALEQQEEGINRLTDYISKVKE
0.4503

Briefly, Fold Change measured for sp¦P27105¦STOM_HUMAN (protein, UniProt P27105 1-288, looked up) Stomatin: MAEKRHTRDSEAQRLPDSFKDSPSKGLGPCGWILVAFSFLFTVITFPISIWMCIKIIKEYERAIIFRLGRILQGGAKGPGLFFILPCTDSFIKVDMRTISFDIPPQEILTKDSVTISVDGVVYYRVQNATLAVANITNADSATRLLAQTTLRNVLGTKNLSQILSDREEIAHNMQSTLDDATDAWGIKVERVEIKDVKLPVQLQRAMAAEAEASREARAKVIAAEGEMNASRALKEASMVITESPAALQLRYLQTLTTIAAEKNSTIVFPLPIDMLQGIIGAKHSHLG : 0.5492

Briefly, Fold Change measured for sp¦P42126¦ECI1_HUMAN (protein, UniProt P42126 42-302, looked up) Enoyl-CoA delta isomerase 1, …: FGSQRVLVEPDAGAGVAVMKFKNPPVNSLSLEFLTELVISLEKLENDKSFRGVILTSDRPGVFSAGLDLTEMCGRSPAHYAGYWKAVQELWLRLYQSNLVLVSAINGACPAGGCLVALTCDYRILADNPRYCIGLNETQLGIIAPFWLKDTLENTIGHRAAERALQLGLLFPPAEALQVGIVDQVVPEEQVQSTALSAIAQWMAIPDHARQLTKAMMRKATASRLVTQRDADVQNFVSFISKDSIQKSLQMYLERLKEEKG : 0.4682
